Sourced from patent US20250163057A1

- system-name: DCN1 (DCUND1) protein PONY domain (Homo sapiens (Human), UniProt Q96GG9)
- Sequence (Q96GG9 60-248): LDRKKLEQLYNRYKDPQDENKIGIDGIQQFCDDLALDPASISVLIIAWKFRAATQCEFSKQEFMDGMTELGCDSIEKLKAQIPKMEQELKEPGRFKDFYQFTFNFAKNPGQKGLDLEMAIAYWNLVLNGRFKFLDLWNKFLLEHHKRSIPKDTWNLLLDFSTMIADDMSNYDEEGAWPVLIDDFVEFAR
- assay-summary: TR-FRET assay, DCN1 binding with FAM-labeled probe
- condition-summary: 24 hr after treatment with compound; read-out: TR FRET IC50 24 hr
pIC50: −log10 of the molar value.
readout-type: pIC50

molecule | pIC50
CCN1C(=O)[C@@H](NC(=O)c2ccn(C(F)(F)F)n2)[C@@H](c2ccc(F)cc2)c2c(C(=O)N3CCC[C@H]3C#N)nn(-c3ccccc3)c21 | ≥ 6.70

// each molecule listed below needs its pIC50
1. CCN1C(=O)[C@@H](NC(=O)c2cccc(C(F)(F)F)c2)[C@@H](C2CC2)c2c(C(=O)N3[C@H](C#N)C[C@H]4C[C@H]43)nn(-c3ccccc3)c21
2. CCN1C(=O)[C@H](NC(=O)c2cccc(C(F)(F)F)c2)[C@H](C2CC2)c2c(C(=O)N(CC#N)C3CC3)nn(C3CCOCC3)c21
3. CCN1C(=O)[C@@H](CC(=O)CC2CC2)[C@@H](C2CC2)c2c(C(=O)N3[C@H](C#N)C[C@H]4C[C@H]43)nn(C3CCOCC3)c21
4. CCN1C(=O)[C@@H](NC(=O)c2cccc(C(F)(F)F)c2)[C@@H](c2ccc(F)cc2)c2c(CNC(=O)/C=C/C(=O)NCCN(C)C)nn(-c3ccccc3)c21 (racemic)
5. CCN1C(=O)[C@@H](NC(=O)CN2C(=O)CSc3ccccc32)[C@@H](C2CC2)c2c(C(=O)N3[C@H](C#N)C[C@H]4C[C@H]43)nn(C3CCOCC3)c21
6. CCCn1nc(C(=O)N(C)C(C)C#N)c2c1N(CC)C(=O)[C@@H](NC(=O)c1cccc(C(F)(F)F)c1)[C@H]2C1CC1 (some centres unmarked)
7. CCN1C(=O)[C@@H](NC(=O)c2cccc(C(F)(F)F)c2)[C@@H](c2ccc(F)cc2)c2c(CN(C#N)CCCN3CCC4(CC3)COC4)nn(-c3ccccc3)c21

≥ 6.70
5.52 to 6.00
5.52 to 6.00
≥ 6.70
5.52 to 6.00
≥ 6.70
≥ 6.70

---

Answer each item with its documented pIC50.
- system-name: DCN1 (DCUND1) protein PONY domain (Homo sapiens (Human), UniProt Q96GG9)
- assay-summary: TR-FRET assay, DCN1 binding with FAM-labeled probe
- condition-summary: 24 hr after treatment with compound; read-out: TR FRET IC50 24 hr
pIC50: −log10 of the molar value.

Some compounds with recorded pIC50:
compound | system-name | result
CCN1C(=O)[C@@H](NC(=O)c2ccc(C3CC3)cc2)[C@@H](C2CC2)c2c(C(=O)N3[C@H](C#N)C[C@H]4C[C@H]43)nn(C3CCOCC3)c21 | DCN1 (DCUND1) protein PONY domain (Homo sapiens (Human), UniProt Q96GG9) | ≥ 6.70
C/C=C(\C)S(=O)(=O)NCc1nn(-c2ccccc2)c2c1[C@H](c1ccc(F)cc1)[C@H](NC(=O)c1cccc(C(F)(F)F)c1)C(=O)N2CC (racemic) | DCN1 (DCUND1) protein PONY domain (Homo sapiens (Human), UniProt Q96GG9) | 6.00 to 6.70

--- query ---
Bench note: what pIC50 did `CCN1C(=O)[C@@H](NC(=O)c2ccn(C(C)(C)C)n2)[C@@H](C2CC2)c2c(C(=O)N3[C@H](C#N)C[C@H]4C[C@H]43)nn(C3CCOCC3)c21` show?
≥ 6.70
